assay.text: Lipid nanoparticle size and polydispersity index by dynamic light scattering (Malvern Zetasizer)
Type: physicochemical
cond: hEPO mRNA LNP, Process A, Cationic Lipid:DMG-PEG2000:Cholesterol:DOPE 40:1.5:28.5:30 mol %, N/P 4
Size (nm) of 90 nm or higher: class 1. Under 90 nm: class 0.

compound	assigned.label
CCCCCC/C=C\COC(=O)CCCCCC(O)CN(CCCC(=O)O[C@@H]1CO[C@H]2[C@@H]1OC[C@@H]2SC(=O)CCCN(CC(O)CCCCCCCCCC)CC(O)CCCCCCCCCC)CC(O)CCCCCC(=O)OC/C=C\CCCCCC (stereo partly drawn) [Compound 34]	class 0

Query: Is it the case that CCCCCCCCCCC(O)CN(CCCCOC(=O)O[C@@H]1CO[C@H]2[C@@H]1OC[C@H]2OC(=O)OCCCCN(CC(O)CCCCCCCCCC)CC(O)CCCCCCCCCC)CC(O)CCCCCCCCCC (stereo partly drawn) [Compound 38] has Size (nm) reaching or exceeding 90 nm?
Result: class 0

Query: Is it the case that CCCCCCCCCCCCC(O)CN(CCCOC(=O)O[C@@H]1CO[C@H]2[C@@H]1OC[C@H]2OC(=O)OCCCN(CC(O)CCCCCCCCCCCC)CC(O)CCCCCCCCCCCC)CC(O)CCCCCCCCCCCC (stereo partly drawn) [Compound 37] has Size (nm) reaching or exceeding 90 nm?
Result: class 0

---

Encapsulation efficiency (EE) %: recorded values
assay.text: mRNA encapsulation efficiency of lipid nanoparticles (RiboGreen assay)
Format: physicochemical
cond: hEPO mRNA LNP, Process A, Cationic Lipid:DMG-PEG2000:Cholesterol:DOPE 40:1.5:28.5:30 mol %, N/P 4
API: value field is a number in %; no unit string.

Answered examples (3):
compound	Encapsulation efficiency (EE) % / %
CCCCCCCCCCCCCCC(O)CN(CCCC(=O)O[C@@H]1CO[C@H]2[C@@H]1OC[C@H]2OC(=O)CCCCN(CC(O)CCCCCCCCCC)CC(O)CCCCCCCCCC)CC(O)CCCCCCCCCCCCCC (stereo partly shown) [Compound 8]	95
CCCCCCCCC(O)CN(CCCCC(=O)O[C@@H]1CO[C@H]2[C@@H]1OC[C@H]2OC(=O)CCCCN(CC(O)CCCCCCCC)CC(O)CCCCCCCC)CC(O)CCCCCCCC (stereo partly shown) [Compound 2]	68
CCCCCC/C=C\COC(=O)CCCCCC(O)CN(CCCC(=O)O[C@@H]1CO[C@H]2[C@@H]1OC[C@@H]2SC(=O)CCCN(CC(O)CCCCCCCCCC)CC(O)CCCCCCCCCC)CC(O)CCCCCC(=O)OC/C=C\CCCCCC (stereo partly shown) [Compound 34]	92

Query: Requested read-out: Encapsulation efficiency (EE) %. Entry: CCCCCCCCCCC(O)CN(CCCC(=O)O[C@H]1CO[C@H]2[C@@H]1OC[C@H]2OC(=O)CCCN(CC(O)CCCCCCCCCC)CC(O)CCCCCCCCCC)CC(O)CCCCCCCCCC (stereo partly shown) [Compound 29]
Result: 96

Query: Requested read-out: Encapsulation efficiency (EE) %. Entry: CCCCCCCCCCC(O)CN(CCCC(=O)O[C@H]1CO[C@H]2[C@@H]1OC[C@H]2OC(=O)CCCN(CC(O)CCCCCCCC)CC(O)CCCCCCCC)CC(O)CCCCCCCCCC (stereo partly shown) [Compound 22]
Result: 91

---

assay.text: Lipid nanoparticle size and polydispersity index by dynamic light scattering (Malvern Zetasizer)
Type: physicochemical
cond: hEPO mRNA LNP, Process A, Cationic Lipid:DMG-PEG2000:Cholesterol:DOPE 40:1.5:28.5:30 mol %, N/P 4
endpoint.name: Polydispersity Index (PDI)

Answered examples (3):
compound	endpoint.name	observed.measurement
CCCCCCCCCCCOC(=O)CCCC(O)CN(CCCC(=O)O[C@@H]1CO[C@H]2[C@@H]1OC[C@@H]2OC(=O)CCCN(CC(O)CCCCCCCCCC)CC(O)CCCCCCCCCC)CC(O)CCCCCC(=O)OC(CCCCCCCC)CCCCCCCC (stereo in doubt)	Polydispersity Index (PDI)	0.2
CCCCCCCCC(O)CN(CCCC(=O)O[C@@H]1CO[C@H]2[C@@H]1OC[C@H]2OC(=O)CCCN(CC(O)CCCCCCCC)CC(O)CCCCCCCC)CC(O)CCCCCCCC (stereo partly shown)	Polydispersity Index (PDI)	0.14
CCCCCCCCCCCCC(O)CN(CCCOC(=O)N[C@H]1CO[C@H]2[C@@H]1OC[C@@H]2NC(=O)OCCCN(CC(O)CCCCCCCCCCCC)CC(O)CCCCCCCCCCCC)CC(O)CCCCCCCCCCCC (stereo partly shown)	Polydispersity Index (PDI)	0.2

Proceeding to the next compound to report its Polydispersity Index (PDI).
Query: Requested read-out: Polydispersity Index (PDI). Entry: CCCCCCCCC(O)CN(CCCC(=O)O[C@H]1CO[C@H]2[C@@H]1OC[C@H]2OC(=O)CCCN(CC(O)CCCCCCCC)CC(O)CCCCCCCC)CC(O)CCCCCCCC (stereo partly shown)
Result: 0.13

---

assay.text: Lipid nanoparticle size and polydispersity index by dynamic light scattering (Malvern Zetasizer)
Type: physicochemical
cond: hEPO mRNA LNP, Process A, Cationic Lipid:DMG-PEG2000:Cholesterol:DOPE 40:1.5:28.5:30 mol %, N/P 4
Polydispersity Index (PDI): recorded values

Answered examples (6):
compound	observed.measurement
CCCCCC/C=C\COC(=O)CCCCCC(O)CN(CCCC(=O)O[C@H]1CO[C@H]2[C@@H]1OC[C@H]2OC(=O)CCCN(CC(O)CCCCCC(=O)OC/C=C\CCCCCC)CC(O)CCCCCC(=O)OC/C=C\CCCCCC)CC(O)CCCCCC(=O)OC/C=C\CCCCCC (stereo partly drawn) [Compound 35]	0.08
CCCCCCCCCCC(O)CN(CCCSC(=O)N[C@H]1CO[C@H]2[C@@H]1OC[C@@H]2NC(=O)SCCCN(CC(O)CCCCCCCCCC)CC(O)CCCCCCCCCC)CC(O)CCCCCCCCCC (stereo partly drawn) [Compound 54]	1.6
CCCCCCCCCCCCC(O)CN(CCCCC(=O)O[C@@H]1CO[C@H]2[C@@H]1OC[C@H]2OC(=O)CCCCN(CC(O)CCCCCCCCCCCC)CC(O)CCCCCCCCCCCC)CC(O)CCCCCCCCCCCC (stereo partly drawn) [Compound 5]	0.11
CCCCCCCCCCC(O)CN(CCCC(=O)O[C@@H]1CO[C@H]2[C@@H]1OC[C@H]2OC(=O)CCCN(CC(O)CCCCCC(=O)OC(CCCCCCCC)CCCCCCCC)CC1CCCC(=O)O1)CC(O)CCCCCCCCCC (stereo partly drawn) [Compound 19]	0.13
CCCCCCCCCCCCCCCCC(O)CN(CCCC(=O)O[C@H]1CO[C@H]2[C@@H]1OC[C@H]2OC(=O)CCCN(CC(O)CCCCCCCCCCCCCCCC)CC(O)CCCCCCCCCCCCCCCC)CC(O)CCCCCCCCCCCCCCCC (stereo partly drawn) [Compound 30]	0.16
CCCCCCCCCCC(O)CN(CCCCC(=O)O[C@@H]1CO[C@H]2[C@@H]1OC[C@H]2OC(=O)CCCCN(CC(O)CCCCCCCCCC)CC(O)CCCCCCCCCC)CC(O)CCCCCCCCCC (stereo partly drawn) [Compound 4]	0.16

Query: Requested read-out: Polydispersity Index (PDI). Entry: CCCCCCCCCCC(O)CN(CCCC(=O)O[C@H]1CO[C@H]2[C@@H]1OC[C@H]2OC(=O)CCCN(CC(O)CCCCCCCCCC)CC(O)CCCCCCCCCC)CC(O)CCCCCCCCCC (stereo partly drawn) [Compound 24]
Result: 0.11

Query: Requested read-out: Polydispersity Index (PDI). Entry: CCCCCC/C=C\COC(=O)CCCCCC(O)CN(CCCC(=O)O[C@@H]1CO[C@H]2[C@@H]1OC[C@H]2OC(=O)CCCN(CC(O)CCCCCCCCCC)CC(O)CCCCCCCCCC)CC(O)CCCCCC(=O)OC/C=C\CCCCCC (stereo partly drawn) [Compound 15]
Result: 0.11

Query: Requested read-out: Polydispersity Index (PDI). Entry: CCCCCCCCCCC(O)CN(CCCOC(=O)O[C@H]1CO[C@H]2[C@@H]1OC[C@H]2OC(=O)OCCCN(CC(O)CCCCCCCCCC)CC(O)CCCCCCCCCC)CC(O)CCCCCCCCCC (stereo partly drawn) [Compound 40]
Result: 0.11

---

assay.text: mRNA encapsulation efficiency of lipid nanoparticles (RiboGreen assay)
Format: physicochemical
cond: hEPO mRNA LNP, Process A, Cationic Lipid:DMG-PEG2000:Cholesterol:DOPE 40:1.5:28.5:30 mol %, N/P 4
Encapsulation efficiency (EE) %: recorded values
API: value field is a number in %; no unit string.

Query: Requested read-out: Encapsulation efficiency (EE) %. Entry: CCCCCCCCCCCCC(O)CN(CCCCC(=O)O[C@H]1CO[C@H]2[C@@H]1OC[C@H]2OC(=O)CCCCN(CC(O)CCCCCCCCCCCC)CC(O)CCCCCCCCCCCC)CC(O)CCCCCCCCCCCC (stereo partly shown) [Compound 28]
Result: 94

Query: Requested read-out: Encapsulation efficiency (EE) %. Entry: CCCCCCCCCCC(O)CN(CCCOC(=O)O[C@@H]1CO[C@H]2[C@@H]1OC[C@H]2OC(=O)OCCCN(CC(O)CCCCCCCCCC)CC(O)CCCCCCCCCC)CC(O)CCCCCCCCCC (stereo partly shown) [Compound 36]
Result: 88

Query: Requested read-out: Encapsulation efficiency (EE) %. Entry: CCCCCCCCC(O)CN(CCCCC(=O)O[C@H]1CO[C@H]2[C@@H]1OC[C@H]2OC(=O)CCCCN(CC(O)CCCCCCCC)CC(O)CCCCCCCC)CC(O)CCCCCCCC (stereo partly shown) [Compound 21]
Result: 96

Query: Requested read-out: Encapsulation efficiency (EE) %. Entry: CCCCCCCCCCC(O)CN(CCCSC(=O)N[C@H]1CO[C@H]2[C@@H]1OC[C@@H]2NC(=O)SCCCN(CC(O)CCCCCCCCCC)CC(O)CCCCCCCCCC)CC(O)CCCCCCCCCC (stereo partly shown) [Compound 54]
Result: 87

Query: Requested read-out: Encapsulation efficiency (EE) %. Entry: CCCCCCCCCCCOC(=O)CCCC(O)CN(CCCC(=O)O[C@@H]1CO[C@H]2[C@@H]1OC[C@H]2OC(=O)CCCN(CC(O)CCCCCCCCCC)CC(O)CCCCCCCCCC)CC(O)CCCCCC(=O)OC(CCCCCCCC)CCCCCCCC (stereo partly shown) [Compound 9]
Result: 91

Query: Requested read-out: Encapsulation efficiency (EE) %. Entry: CCCCCCCCCCCCCCC(O)CN(CCCC(=O)O[C@@H]1CO[C@H]2[C@@H]1OC[C@H]2OC(=O)CCCN(CC(O)CCCCCCCCCCCCCC)CC(O)CCCCCCCCCCCCCC)CC(O)CCCCCCCCCCCCCC (stereo partly shown) [Compound 6]
Result: 99

Query: Requested read-out: Encapsulation efficiency (EE) %. Entry: CCCCCCCCC(O)CN(CCCC(=O)O[C@@H]1CO[C@H]2[C@@H]1OC[C@H]2OC(=O)CCCN(CC(O)CCCCCCCC)CC(O)CCCCCCCC)CC(O)CCCCCCCC (stereo partly shown) [Compound 1]
Result: 85
